Overview of recorded Papp A→B at 30 min, 50 μM for various compounds
# Procedure Text: in vitro;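 note: MDCK monolayers on transwell filters in HBSS, compound dosed on the apical side, receiver chamber sampled at 30 min and quantified by LC-MS to derive Papp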
# Condition Summary: dog, MDCK, pH 7.4
Output should be the measured figure followed by the unit it is expressed in.

Here are 5 compounds together with their reported answers.
Fc1ccc(F)c([C@]23C[C@H]2c2c[nH]c(=S)n2C3)c1    15.8 ×10⁻⁶ cm/s
Fc1ccc(C2Cc3c[nH]c(=S)n3C2)c(F)c1 (stereo not shown)    100 ×10⁻⁶ cm/s
NC(=S)N1CCC(c2cc(F)cc(F)c2)C1 (stereo not shown)    79.4 ×10⁻⁶ cm/s
NC(=S)N1CCC(c2ccccc2)C1 (stereo not shown) [Example 1, 3-Phenylpyrrolidine-1-carbothioamide]    63.1 ×10⁻⁶ cm/s
CC1(c2ccccc2)CCN(C(N)=S)C1 (stereo not shown)    100 ×10⁻⁶ cm/s

Entry Fc1cc(F)cc([C@]23C[C@H]2c2c[nH]c(=S)n2C3)c1 has what Papp A→B at 30 min, 50 μM? 25.1 ×10⁻⁶ cm/s

Could you do the same for Fc1cc(F)cc(C2Cc3c[nH]c(=S)n3C2)c1 (stereo not shown) , please? 126 ×10⁻⁶ cm/s

Could you do the same for Fc1cc(F)cc(C23CC2c2c[nH]c(=S)n2C3)c1 (stereo not shown) , please? 25.1 ×10⁻⁶ cm/s

Could you do the same for Fc1cc(F)cc([C@H]2Cc3c[nH]c(=S)n3C2)c1 , please? 126 ×10⁻⁶ cm/s

Could you do the same for NC(=S)N1CCC(c2ccco2)C1 (stereo not shown) , please? 79.4 ×10⁻⁶ cm/s

Could you do the same for CNC(=S)N1CC(c2cc(F)cc(F)c2)CC1=O (stereo not shown) , please? 100 ×10⁻⁶ cm/s

Could you do the same for Cc1ccc(C2CCN(C(N)=S)C2)s1 (stereo not shown) , please? 126 ×10⁻⁶ cm/s

Could you do the same for CNC(=S)N1CC2(c3cc(F)cc(F)c3)CC2C1=O (stereo not shown) , please? 200 ×10⁻⁶ cm/s

Could you do the same for NC(=S)N1CC2CC2(c2cc(F)cc(F)c2)C1 (stereo not shown) , please? 63.1 ×10⁻⁶ cm/s

Could you do the same for NC(=S)N1C[C@H]2C[C@@]2(c2cccs2)C1 , please? 126 ×10⁻⁶ cm/s

Could you do the same for CNC(=S)N1CCC(c2ccccc2)C1 (stereo not shown) , please? 79.4 ×10⁻⁶ cm/s

Source of measurements: patent US10975083B2
